- assayed-system: T1, Cynomolgus TNFR2-His (Sino 90102-C08H) (cynomolgus monkey, UniProt A0A2K5VET2 132-366)
- T1 construct: Bought protein; also called cynomolgus monkey TNFR2; recombinant cynomolgus monkey TNFR2 protein; not shown: His tag
- T1 sequence: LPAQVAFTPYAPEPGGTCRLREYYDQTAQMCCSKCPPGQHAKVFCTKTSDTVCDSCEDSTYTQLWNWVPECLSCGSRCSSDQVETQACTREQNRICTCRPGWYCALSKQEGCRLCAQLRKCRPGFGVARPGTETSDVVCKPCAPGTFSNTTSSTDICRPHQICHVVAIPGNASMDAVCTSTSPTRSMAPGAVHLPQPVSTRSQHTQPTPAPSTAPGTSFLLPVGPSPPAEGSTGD
- experiment-description: ELISA, cynomolgus TNFR2-His coated; EC50 against 001-WT
observable: % Relative activity (WT antibody/test antibody) (%)
Lab book: enter the figure in %, no units written.

In the examples that follow, each entry is paired with its recorded % Relative activity (WT antibody/test antibody).
binder: 001-Hu2 (antibody, V domains shown, Humanized form of #001; also called VH2 + VL2) VH: EVQLVESGGGLVQPGGSLRLSCAASGFAFSTYDLSWVRQAPGKGLEWVAYINNGGISTYYSDTVKGRFTISRDNAKNSLYLQMNSLRAEDTAVYYCVRGPFYGSANYFDYWGQGTLVTVSS VL: DIQMTQSPSSLSASVGDRVTITCRTSESIYSNLPWYQQKPGKSPKLLIYDATKLAEGVPSRFSGSGSGTDFTLTISSLQPEDFATYYCQHFWVTPWTFGQGTKVEIK
observed-result: 107
//
binder: 001-Hu1 (antibody, V domains shown, Humanized form of #001; also called VH1 + VL1) VH: EVQLVESGGGLVQPGGSLRLSCAASGFAFSTYDLSWVRQAPGKGLEWVAYINNGGISTYYSDTVKGRFTISRDNAKNTLYLQMNSLRAEDTAVYYCVRGPFYGSANYFDYWGQGTLVTVSS VL: DIQMTQSPSSLSASVGDRVTITCRTSESIYSNLPWYQQKPGKAPKLLLYDATKLAEGVPSRFSGSGSGTDYTLTISSLQPEDFATYYCQHFWVTPWTFGQGTKVEIK
observed-result: 108
//
binder: 001-Hu4 (antibody, V domains shown, Humanized form of #001; also called VH2 + VL4) VH: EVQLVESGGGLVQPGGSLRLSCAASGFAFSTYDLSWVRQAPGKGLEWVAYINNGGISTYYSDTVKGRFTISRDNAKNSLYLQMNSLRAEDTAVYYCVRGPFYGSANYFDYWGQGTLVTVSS VL: DIQMTQSPSSLSASVGDRVTITCRTSESIYSNLPWYQQKPGKSPKLLVYDATKLAEGVPSRFSGSGSGTDYTLTISSLQPEDFATYYCQHFWVTPWTFGQGTKVEIK
observed-result: 106

Could you now look at the following binder, please?
In: Hello, please tell me recorded % Relative activity (WT antibody/test antibody) for this one: 001-Hu5 (antibody, V domains shown, Humanized form of #001; also called VH1 + VL4) VH: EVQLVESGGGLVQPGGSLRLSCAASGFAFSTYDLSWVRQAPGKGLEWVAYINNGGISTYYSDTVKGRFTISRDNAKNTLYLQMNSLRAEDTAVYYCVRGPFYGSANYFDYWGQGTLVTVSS VL: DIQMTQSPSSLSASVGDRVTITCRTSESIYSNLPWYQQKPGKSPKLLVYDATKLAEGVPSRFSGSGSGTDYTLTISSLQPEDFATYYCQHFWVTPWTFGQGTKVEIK
Out: 105
